# assayedTarget: CXCR1 receptor (Homo sapiens (Human))
# methodNotes: β-arrestin recruitment test, U2OS hCXCR1 β-arrestin cells stimulated with CXCL8
# Format: cell-based
# reportedConditions: inhibition of CXCL8 (10 nM) induced β-arrestin 2 recruitment; *9999 signifies not active
Listed below: IC50 values for each entry.
Numbers only here, please. The scale is nM.

>  <compound>
Cc1ccc(C(Nc2c(Nc3cccc(C(=O)N(C)CC(F)(F)F)c3O)c(=O)c2=O)C2CCCS2)o1 (single isomer, unassigned) [Example 8 (Diastereoisomer 1)]

>  <assayedTarget>
CXCR1 receptor (Homo sapiens (Human))

>  <unitText>
nM

>  <IC50>
508

$$$$
>  <compound>
COC(=O)CN(C)C(=O)c1cccc(Nc2c(NC(c3ccc(C)o3)C3CCCS3)c(=O)c2=O)c1O (single isomer, unassigned) [Example 9 (Diastereoisomer 2)]

>  <assayedTarget>
CXCR1 receptor (Homo sapiens (Human))

>  <unitText>
nM

>  <IC50>
89

$$$$
>  <compound>
Cc1ccc(C(Nc2c(Nc3cccc(C(=O)N4CCC[C@H]4C(=O)OC(C)C)c3F)c(=O)c2=O)C2CCCS2)o1 (some centres unmarked) [Example 4]

>  <assayedTarget>
CXCR1 receptor (Homo sapiens (Human))

>  <unitText>
nM

>  <IC50>
1890

$$$$

[Q] Write down IC50 measured for item Cc1ccc(C(Nc2c(Nc3cccc(C(=O)N(C)C)c3O)c(=O)c2=O)[C@@H]2COC(C)(C)O2)o1 (single isomer, unassigned) [Example 14 (Diastereoisomer 2)]
[A] 10000

[Q] Write down IC50 measured for item Cc1ccc(C(Nc2c(Nc3ccc(Cl)c(S(=O)(=O)N4CCN(C)CC4)c3O)c(=O)c2=O)C2CCCS2)o1 (single isomer, unassigned; (-)) [Example 22]
[A] 30

---

# assayedTarget: CCR4 (Homo sapiens (Human))
# Sequence (P51679 whole entry): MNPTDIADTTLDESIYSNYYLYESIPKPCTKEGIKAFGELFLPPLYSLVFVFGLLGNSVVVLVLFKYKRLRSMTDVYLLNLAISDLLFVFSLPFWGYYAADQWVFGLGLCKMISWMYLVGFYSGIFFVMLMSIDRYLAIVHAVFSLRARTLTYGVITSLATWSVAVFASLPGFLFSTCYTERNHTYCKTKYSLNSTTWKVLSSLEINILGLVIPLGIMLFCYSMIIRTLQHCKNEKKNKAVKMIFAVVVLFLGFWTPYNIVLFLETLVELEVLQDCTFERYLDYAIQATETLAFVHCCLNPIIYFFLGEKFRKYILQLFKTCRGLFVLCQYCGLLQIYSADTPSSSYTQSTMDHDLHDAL
# methodNotes: Calcium flux on Chem-1 cells expressing the chemokine receptor (FLIPR TETRA), antagonist mode
pIC50: −log10 of the molar value.
Classification field: yes = pIC50 at or over 7; no = pIC50 under 7.

>  <compound>
Cc1ccc(C(Nc2c(Nc3ccc(Cl)c(S(=O)(=O)N4CCN(C)CC4)c3O)c(=O)c2=O)C2CCCS2)o1 (single isomer, unassigned; (-))

>  <assignedCategory>
yes

$$$$
>  <compound>
Cc1ccc(C(Nc2c(Nc3cccc(C(=O)N(C)C)c3O)c(=O)c2=O)C2(C)CCCO2)o1 (single isomer, unassigned) [Example 1 (Enantiomer 2 of diastereoisomer 2)]

>  <assignedCategory>
no

$$$$
>  <compound>
COC(=O)CN(C)C(=O)c1cccc(Nc2c(N[C@@H](c3ccc(C)o3)C3CCCS3)c(=O)c2=O)c1O (single isomer, unassigned)

>  <assignedCategory>
yes

$$$$

# evaluate next
[Q] Is it the case that COC(=O)[C@H]1CCCN1C(=O)c1cccc(Nc2c(NC(c3ccc(C)o3)C3CCCS3)c(=O)c2=O)c1O (single isomer, unassigned) has pIC50 reaching or exceeding 7?
[A] yes

---

# methodNotes: Metabolic stabilities in hepatocytes
# Type: in vitro ADME
# reportedConditions: human, hepatocytes, compound 1 μM, sampling up to 24 hours, read-out: Half-life time
measuredMetric: half-life at 1 μM (h)
Numbers only here, please. The scale is h.

These recorded examples may help you get a feel for the data.
>  <molecule>
Cc1ccc(C(Nc2c(Nc3cccc(C(=O)N(C)C)c3O)c(=O)c2=O)C2(C)CCCO2)o1 (single isomer, unassigned) [Example 1 (Enantiomer 2 of diastereoisomer 2)]

>  <reportedMeasurement>
5

$$$$
>  <molecule>
Cc1ccc(C(Nc2c(Nc3ccc(Cl)c(S(=O)(=O)N4CCN(C)CC4)c3O)c(=O)c2=O)C2CCCS2)o1 (single isomer, unassigned; (-)) [Example 22]

>  <reportedMeasurement>
0.817

$$$$
>  <molecule>
COC(=O)CN(C)C(=O)c1cccc(Nc2c(N[C@@H](c3ccc(C)o3)C3CCCS3)c(=O)c2=O)c1O (single isomer, unassigned) [Example 19]

>  <reportedMeasurement>
3.57

$$$$
>  <molecule>
Cc1ccc([C@H](Nc2c(Nc3cccc(C(=O)N(C)CC(F)(F)F)c3O)c(=O)c2=O)C2CCCS2)o1 (single isomer, unassigned; (-)) [Example 18]

>  <reportedMeasurement>
1.37

$$$$

[Q] Write down half-life at 1 μM measured for item COC(=O)[C@H]1CCCN1C(=O)c1cccc(Nc2c(NC(c3ccc(C)o3)C3CCCS3)c(=O)c2=O)c1O (single isomer, unassigned) [Example 20]
[A] 3.52

---

# assayedTarget: CCR6 (Homo sapiens (Human))
# Sequence (P51684 whole entry): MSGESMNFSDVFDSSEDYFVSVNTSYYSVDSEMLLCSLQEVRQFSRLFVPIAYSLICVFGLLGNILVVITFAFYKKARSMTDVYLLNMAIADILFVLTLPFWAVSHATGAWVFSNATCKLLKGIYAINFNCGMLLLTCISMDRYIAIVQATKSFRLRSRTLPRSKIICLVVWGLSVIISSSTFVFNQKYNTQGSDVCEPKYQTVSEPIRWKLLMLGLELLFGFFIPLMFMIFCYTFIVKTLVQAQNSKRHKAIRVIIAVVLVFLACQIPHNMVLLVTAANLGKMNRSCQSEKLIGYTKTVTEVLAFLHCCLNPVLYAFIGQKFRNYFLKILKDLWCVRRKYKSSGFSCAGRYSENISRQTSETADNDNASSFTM
# methodNotes: Calcium flux on Chem-1 cells expressing the chemokine receptor (FLIPR TETRA), antagonist mode
# reportedConditions: antagonist activity, reference agonist at AC80
measuredMetric: IC50 (nM)
Numbers only here, please. The scale is nM.

These recorded examples may help you get a feel for the data.
>  <compound>
COC(=O)CN(C)C(=O)c1cccc(Nc2c(N[C@@H](c3ccc(C)o3)C3CCCS3)c(=O)c2=O)c1O (single isomer, unassigned)

>  <assayedTarget>
CCR6 (Homo sapiens (Human))

>  <reportedMeasurement>
11

$$$$
>  <compound>
Cc1ccc(C(Nc2c(Nc3cccc(C(=O)N(C)C)c3O)c(=O)c2=O)C2(C)CCCO2)o1 (single isomer, unassigned) [1 (diastereoisomer 2)]

>  <assayedTarget>
CCR6 (Homo sapiens (Human))

>  <reportedMeasurement>
2.2

$$$$

Here is the next item to consider.
[Q] Write down IC50 measured for item Cc1ccc(C(Nc2c(Nc3cccc(C(=O)N(C)C)c3O)c(=O)c2=O)C2(C)CCCO2)o1 (single isomer, unassigned) [Example 1 (Enantiomer 2 of diastereoisomer 2)]
[A] 2

---

# methodNotes: Metabolic stabilities in hepatic microsomes
# reportedConditions: hepatic microsomes, pH 7.4, Half-life time (min), hepatic microsomes 0.5 mg/ml protein, compound 1 μM, sampling up to 60 minutes
Listed below: half-life at 1 μM values for each entry.
Numbers only here, please. The scale is min.

>  <compound>
COC(=O)CN(C)C(=O)c1cccc(Nc2c(N[C@@H](c3ccc(C)o3)C3CCCS3)c(=O)c2=O)c1O (single isomer, unassigned)

>  <reportedMeasurement>
8

$$$$

[Q] Write down half-life at 1 μM measured for item Cc1ccc(C(Nc2c(Nc3ccc(Cl)c(S(=O)(=O)N4CCN(C)CC4)c3O)c(=O)c2=O)C2CCCS2)o1 (single isomer, unassigned; (-))
[A] 7

[Q] Write down half-life at 1 μM measured for item Cc1ccc(C(Nc2c(Nc3cccc(C(=O)N(C)C)c3O)c(=O)c2=O)C2CCCS2)o1 (single isomer, unassigned) [2 (diastereoisomer 2)]
[A] 11

[Q] Write down half-life at 1 μM measured for item Cc1ccc(C(Nc2c(Nc3cccc(C(=O)N(C)C)c3O)c(=O)c2=O)C2(C)CCCO2)o1 (single isomer, unassigned) [1 (diastereoisomer 2)]
[A] 27

[Q] Write down half-life at 1 μM measured for item Cc1ccc([C@H](Nc2c(Nc3cccc(C(=O)N(C)CC(F)(F)F)c3O)c(=O)c2=O)C2CCCS2)o1 (single isomer, unassigned; (-))
[A] 15

---

# assayedTarget: FPR1 (Homo sapiens (Human), UniProt P21462)
# Sequence (P21462 whole entry): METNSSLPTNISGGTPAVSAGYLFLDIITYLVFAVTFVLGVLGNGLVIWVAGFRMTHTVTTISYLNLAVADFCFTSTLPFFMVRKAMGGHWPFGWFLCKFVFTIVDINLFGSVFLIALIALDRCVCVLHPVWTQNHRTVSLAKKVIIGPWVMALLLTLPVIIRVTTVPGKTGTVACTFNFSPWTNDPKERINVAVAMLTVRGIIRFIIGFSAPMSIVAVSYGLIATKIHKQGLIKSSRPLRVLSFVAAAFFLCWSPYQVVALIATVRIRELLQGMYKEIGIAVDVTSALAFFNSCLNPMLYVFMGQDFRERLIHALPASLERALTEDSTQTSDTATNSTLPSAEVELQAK
# methodNotes: Calcium flux on Chem-1 cells expressing the receptor (FLIPR TETRA), antagonist mode
# Format: cell-based
# reportedConditions: antagonist activity, reference agonist at AC80
measuredMetric: IC50
State the value, then name its unit.

[Q] Write down IC50 measured for item Cc1ccc(C(Nc2c(Nc3cccc(C(=O)N(C)C)c3O)c(=O)c2=O)C2CCCS2)o1 (single isomer, unassigned) [2 (diastereoisomer 2)]
[A] 6.5 µM

---

# assayedTarget: CXCR1 receptor (Homo sapiens (Human), UniProt P25024)
# Sequence (P25024 whole entry): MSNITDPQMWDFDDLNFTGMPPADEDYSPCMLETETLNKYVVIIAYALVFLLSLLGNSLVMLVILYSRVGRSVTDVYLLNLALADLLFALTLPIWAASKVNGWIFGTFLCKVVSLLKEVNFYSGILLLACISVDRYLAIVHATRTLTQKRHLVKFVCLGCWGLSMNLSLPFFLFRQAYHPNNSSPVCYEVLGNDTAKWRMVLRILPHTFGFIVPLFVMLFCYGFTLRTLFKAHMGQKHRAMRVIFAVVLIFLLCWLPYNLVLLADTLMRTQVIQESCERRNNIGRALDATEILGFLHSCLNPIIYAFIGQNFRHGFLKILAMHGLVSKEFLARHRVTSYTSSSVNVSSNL
# methodNotes: β-arrestin recruitment test, U2OS hCXCR1 β-arrestin cells stimulated with CXCL8
# Assay type: cell-based
# reportedConditions: inhibition of CXCL8 (10 nM) induced β-arrestin 2 recruitment; *9999 signifies not active
Listed below: log10 of IC50 values for each entry.
The base-10 logarithm of IC50, taken with IC50 in nM, is what appears here.

>  <molecule>
Cc1ccc([C@H](Nc2c(Nc3cccc(C(=O)N(C)CC(F)(F)F)c3O)c(=O)c2=O)C2CCCS2)o1 (single isomer, unassigned; (-)) [Example 18]

>  <assayedTarget>
CXCR1 receptor (Homo sapiens (Human), UniProt P25024)

>  <reportedMeasurement>
1.56

$$$$
>  <molecule>
CCOC(=O)[C@@H]1CCCN1C(=O)c1cccc(Nc2c(NC(c3ccc(C)o3)C3CCCS3)c(=O)c2=O)c1F (stereo partly drawn) [Example 5]

>  <assayedTarget>
CXCR1 receptor (Homo sapiens (Human), UniProt P25024)

>  <reportedMeasurement>
2.85

$$$$
>  <molecule>
Cc1ccc(C(Nc2c(Nc3cccc(C(=O)N(C)C)c3O)c(=O)c2=O)[C@@H]2COC(C)(C)O2)o1 (single isomer, unassigned) [Example 14 (Diastereoisomer 1)]

>  <assayedTarget>
CXCR1 receptor (Homo sapiens (Human), UniProt P25024)

>  <reportedMeasurement>
4.00

$$$$
>  <molecule>
Cc1ccc(C(Nc2c(Nc3cccc(C(=O)N(C)C)c3O)c(=O)c2=O)[C@H]2CCCO2)o1 (stereo in doubt) [Example 11]

>  <assayedTarget>
CXCR1 receptor (Homo sapiens (Human), UniProt P25024)

>  <reportedMeasurement>
3.12

$$$$

[Q] Write down log10 of IC50 measured for item Cc1ccc(C(Nc2c(Nc3cccn(C)c3=O)c(=O)c2=O)C2CCCS2)o1 (stereo not drawn) [Example 17]
[A] 2.58

[Q] Write down log10 of IC50 measured for item COC(=O)CN(C)C(=O)c1cccc(Nc2c(NC(c3ccc(C)o3)C3CCCS3)c(=O)c2=O)c1O (single isomer, unassigned) [9 (Diastereoisomer 1)]
[A] 2.76

Origin of measurements: patent US9388149B2
